Values compiled from ChEMBL document CHEMBL1201862.

System: HOP-92
PROTOCOL_TEXT: NCI tumour cell line growth inhibition, 48 h
Active and inactive are the calls of the source. Rule as the data show it: active = GI50 up to about 1.1 µM and inactive = higher.
Pick one: t for active, f for inactive

stdin: Could you kindly confirm the outcome this assay logged for C=C(C(=O)O[C@H]1C/C(C)=C/CC/C(CO)=C/[C@H]2C(=O)OC(=C)[C@H]12)C(O)CO (some centres undefined) ?
stdout: f

stdin: So what was the verdict on CCC(C)(C)C(=O)O[C@H]1C[C@@H](C)C=C2C=C[C@H](C)[C@H](CC[C@@H]3C[C@@H](O)CC(=O)O3)[C@H]21 in this test?
stdout: t

stdin: I'd appreciate the recorded outcome for CC(C)(C)C1CCC2c3c([nH]c4ccccc34)C3C(=O)N(c4cc(Cl)ccc4Cl)C(=O)C3C2C1 (centres undefined) from this test.
stdout: f

stdin: Please indicate how the test categorized CCOC(=O)C(C)c1nc2ccc(C(F)(F)F)cc2[nH]c1=O (centres undefined) .
stdout: f

###

Test system: OVCAR-4
PROTOCOL_TEXT: NCI tumour cell line growth inhibition, 48 h
Active and inactive are the calls of the source. Cut-off read from the data, not from the text of the source: active = GI50 up to about 1.1 µM and inactive = higher.
RESULT_TYPE: GI50

stdin: If you can, please state the reported GI50 value of CCCCCCCCCCCC(=O)OCC1OC(n2cc(F)c(=O)[nH]c2=O)C(NC(=O)OCc2ccccc2)C(O)C1O (stereo not given) .
stdout: 23.8 µM (inactive)

stdin: Name the reported GI50 value associated with the molecule CSc1c(C#N)c(=O)[nH]c2[nH]nc(C)c12
stdout: > 100 µM (inactive)

stdin: Dear colleague, I am looking for the recorded GI50 of the following molecule: O=C(/C=C/c1ccccc1)CC1OC(=O)c2ccccc21 (stereo not given)
stdout: > 100 µM (inactive)

stdin: What value of measured GI50 is listed for CC(=O)C1(c2ccccc2)CCN(Cn2sc3nc(C)cc(C)c3c2=O)CC1 ?
stdout: 21.9 µM (inactive)

stdin: Find the recorded GI50 belonging to CC(C)C(/C=C/c1ccccc1)=N\NC(=O)N/N=C(/C=C/c1ccccc1)C(C)C and report it.
stdout: 35 µM (inactive)

###

System: K562
PROTOCOL_TEXT: NCI tumour cell line growth inhibition, 48 h
Active and inactive are the calls of the source. Rule as the data show it: active = GI50 up to about 1.1 µM and inactive = higher.
Hi there, use one of these labels in your reply, thanks! active, inactive

stdin: In this assay, the call recorded for COC(=O)CNC(=O)c1cc(C)cc2c1Oc1c(cc(C)cc1C(=O)NCC(=O)OC)S2 was what?
stdout: inactive

stdin: Each molecule tested received a call. Report the one for C/C(=N/NC(=O)C[N+](C)(C)C)C(CN(C)C)C(=O)Nc1ccccc1 (stereo not given) .
stdout: inactive

stdin: I would be grateful if you could indicate the recorded call for CC(C)(C)C1=Cc2cc3cc(C(C)(C)C)[nH]c(=O)c3cc2S(=O)(=O)N1 .
stdout: inactive

stdin: In this assay, the call recorded for COc1ccc(C(C#N)Cc2cc(OC)c(OC)c(OC)c2)cc1 (stereo not given) was what?
stdout: inactive

stdin: Just curious, what result did C=CCC12CCC(=O)C=C1CCC1(C2)OCCO1 (stereo not given) get here?
stdout: inactive

stdin: Fill in: this test's call for CCCC1N2CCCCC2[C@@H]2c3[nH]c4ccccc4c3CCN12 (stereo not given in full) is ___
stdout: inactive

stdin: Lab log entry: COc1ccc2c3c(c4cc(OC)c(OC)cc4c2c1)CN1CCC[C@H]1[C@@H]3O — outcome as called in the assay?
stdout: active

stdin: Assay outcome for N/N=C1\C(=O)N(Cc2ccccc2)C(=O)C1C(=O)NCc1ccccc1 (stereo not given) : what was it?
stdout: inactive

stdin: Test call, this molecule: CCCCCCCCCCCC(=O)OCC1OC(n2cc(F)c(=O)[nH]c2=O)C(NC(=O)OCc2ccccc2)C(O)C1O (stereo not given)
stdout: inactive

stdin: For this molecule, state the assay outcome: O=C1NC(=O)C2C(=O)NC(=O)C1C2(c1ccccc1)c1cc[nH]c1 (stereo not given)
stdout: inactive
